Tested on: HER2 WT cPAC cell lines
Test: 72 hour drug dose-response, CellTiter-Glo cell viability
Type: cell-based, canine
Conditions: Canis lupus familiaris, 72 h, read-out: IC50, viability, HER2WT cells, 72 hours, p=0.0079 vs HER2-mutant
Assay endpoint: IC50

- CCOc1cc2ncc(C#N)c(Nc3ccc(OCc4ccccn4)c(Cl)c3)c2cc1NC(=O)/C=C/CN(C)C: > 2700 nM

---

System: HER2-mutant cell lines (HER2 V659E cPAC lines, BT474, H1781)
Assay: 72 hour drug dose-response, CellTiter-Glo cell viability
Type: cell-based, canine and human
Conditions: all HER2-mutant cell lines
pIC50: −log10 of the molar value.
Assay endpoint: pIC50

- CCOc1cc2ncc(C#N)c(Nc3ccc(OCc4ccccn4)c(Cl)c3)c2cc1NC(=O)/C=C/CN(C)C [neratinib]: > 7.30

---

System: HER2 V659E cPAC cell lines
Experiment: 72 hour drug dose-response, CellTiter-Glo cell viability
Assay type: cell-based, canine
Conditions: Canis lupus familiaris, 72 h, read-out: IC50, viability, one of the two HER2 V659E lines, 72 hours
pIC50: −log10 of the molar value.
Assay endpoint: pIC50

* C#Cc1cccc(Nc2ncnc3cc(OCCOC)c(OCCOC)cc23)c1 | 6.66

Origin of measurements: patent US12351878B2
